These data points were gathered from ChEMBL document CHEMBL5209573.

Target: Sodium/potassium/calcium exchanger 2 (Homo sapiens)
Sequence (Q9UI40 whole entry): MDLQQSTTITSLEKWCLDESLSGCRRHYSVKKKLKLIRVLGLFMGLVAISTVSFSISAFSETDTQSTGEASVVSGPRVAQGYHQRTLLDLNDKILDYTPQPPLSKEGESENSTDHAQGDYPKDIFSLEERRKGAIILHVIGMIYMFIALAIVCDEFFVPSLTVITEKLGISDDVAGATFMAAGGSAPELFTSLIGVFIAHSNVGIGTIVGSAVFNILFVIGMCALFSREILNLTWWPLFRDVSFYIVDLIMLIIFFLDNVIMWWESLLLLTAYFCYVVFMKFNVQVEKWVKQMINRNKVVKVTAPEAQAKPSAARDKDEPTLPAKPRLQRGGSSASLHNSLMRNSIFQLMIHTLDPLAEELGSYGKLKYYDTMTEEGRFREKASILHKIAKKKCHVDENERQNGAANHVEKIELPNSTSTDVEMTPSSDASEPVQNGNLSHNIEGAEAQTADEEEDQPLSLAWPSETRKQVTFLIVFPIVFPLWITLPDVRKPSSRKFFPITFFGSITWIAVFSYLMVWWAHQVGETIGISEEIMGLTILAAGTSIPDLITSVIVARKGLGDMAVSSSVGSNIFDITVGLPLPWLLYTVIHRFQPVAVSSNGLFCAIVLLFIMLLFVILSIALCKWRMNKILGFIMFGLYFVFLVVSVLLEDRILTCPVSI
Assay: Substrate uptake by the Sodium/Potassium/Calcium Exchanger 2 (NCKX2, SLC24A2) as assessed by Screen Questtrade mark Fluo-8 NW calcium assay kit in HEK-293 JumpIN-SLC24A2 cells (PubChem AID: 1794815)
assayReadout: pEC50
Reminder that pEC50 is minus the log10 of a molar concentration.

Query string: Fill in: pEC50 of [Cl-].[K+] [POTASSIUM CHLORIDE] is ___
Result string: 0.55
